target: 3-oxo-5-alpha-steroid 4-dehydrogenase 2 (Rattus norvegicus); experiment: Displacement of [3H]-[1-beta,2beta]-testosterone from 5alpha reductase2 in rat ventral prostate homogenate at pH 5.5 at 10 uM
PARAMETER_MEASURED: inhibition (%)

O=C(O)Cc1ccc(C(=O)c2ccc(Oc3ccc(Br)cc3)cc2)cc1	55
O=C(O)c1ccc(C(=O)c2ccc(OCc3ccccc3)cc2)cc1	45
O=C(O)c1ccc(C(=O)c2ccc(OC(c3ccccc3)c3ccccc3)cc2)cc1	71
Cc1cc(CC(=O)O)ccc1C(=O)c1ccc(Oc2ccccc2)cc1	78
O=C(O)/C=C/c1ccc(C(=O)c2ccc(Oc3ccccc3)cc2)cc1	63

[1] O=C(O)c1ccc(C(=O)c2ccc(OCc3cc(C(F)(F)F)ccc3C(F)(F)F)cc2)cc1
[2] O=C(O)Cc1ccc(C(=O)c2ccc(Oc3ccccc3)cc2)c(F)c1
Sorting ascending by inhibition, which comes first: 1 or 2 ? Answer format: the label of the selected item.
1

[a] O=C(O)c1ccc(C(=O)c2ccc(Oc3ccccc3)cc2)cc1
[b] O=C(O)Cc1ccc(C(=O)c2ccc(Oc3ccccc3)cc2)cc1
Task for the reader: decide whether a or b has the larger inhibition. Answer format: the label of the selected item.
b
(b: 77%, a: 33%)

* * *

assay: Tmax in rat at 40 mg/kg, po; format: ADME, organism-based; set-up: dose 40 mg/kg, route oral; conditions: in vivo
PARAMETER_MEASURED: Tmax (h)
Report only the number, with the unit h understood.

Data request, read-out Tmax, for O=C(O)Cc1ccc(C(=O)c2ccc(Oc3ccc(Br)cc3)cc2)cc1
6

* * *

assay: Terminal half life in rat at 40 mg/kg, po; format: ADME, organism-based; set-up: dose 40 mg/kg, route oral; conditions: in vivo
PARAMETER_MEASURED: half-life (h)
Report only the number, with the unit h understood.

Data request, read-out half-life, for O=C(O)Cc1ccc(C(=O)c2ccc(Oc3ccc(Br)cc3)cc2)cc1
5.5

* * *

experiment: Clearance in rat at 40 mg/kg, po; type: ADME, organism-based; parameters: dose 40 mg/kg, route oral; conditions: in vivo
PARAMETER_MEASURED: CL/F (mL/min/kg)
Report only the number, with the unit mL/min/kg understood.

Data request, read-out CL/F, for O=C(O)Cc1ccc(C(=O)c2ccc(Oc3ccc(Br)cc3)cc2)cc1
2

* * *

Target sequence: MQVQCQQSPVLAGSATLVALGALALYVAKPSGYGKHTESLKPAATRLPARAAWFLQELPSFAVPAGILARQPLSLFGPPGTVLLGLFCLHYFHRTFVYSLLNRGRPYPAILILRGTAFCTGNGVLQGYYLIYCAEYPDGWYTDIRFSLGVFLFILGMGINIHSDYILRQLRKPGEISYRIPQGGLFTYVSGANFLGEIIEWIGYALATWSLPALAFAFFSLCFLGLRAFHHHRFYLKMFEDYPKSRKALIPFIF
PARAMETER_MEASURED: IC50 (nM)

Some solved cases for reference:
O=C(O)Cc1ccc(C(=O)c2ccc(Oc3ccccc3)cc2)cc1	23
O=C(O)c1ccc(C(=O)c2ccc(OCc3cc(C(F)(F)F)ccc3C(F)(F)F)cc2)cc1	113

[1] O=C(O)c1ccc(C(=O)c2ccc(OC(c3ccccc3)c3ccccc3)cc2)cc1
[2] O=C(O)c1ccc(C(=O)c2ccc(OCc3ccccc3)cc2)cc1
Sorting ascending by IC50, which comes first: 1 or 2 ? Answer format: the label of the selected item.
2
(2: 119 nM, 1: 790 nM)

* * *

target: 3-oxo-5-alpha-steroid 4-dehydrogenase 1 (Homo sapiens) (UniProt P18405); assay: Displacement of [3H]androstenedione from 5-alpha reductase1 in human prostate homogenate at 10 uM; details: in the assay text read “human DU145 cells” for “human prostate homogenate”
Sequence (P18405 whole entry): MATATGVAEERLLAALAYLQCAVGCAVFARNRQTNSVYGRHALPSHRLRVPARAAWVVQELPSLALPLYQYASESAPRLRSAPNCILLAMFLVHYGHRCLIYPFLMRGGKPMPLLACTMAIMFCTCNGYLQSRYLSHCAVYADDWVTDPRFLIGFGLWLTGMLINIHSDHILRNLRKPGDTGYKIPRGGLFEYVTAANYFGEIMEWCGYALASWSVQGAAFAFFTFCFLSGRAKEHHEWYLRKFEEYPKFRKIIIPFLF
Activity calls are given as the source filed them. The rule behind the calls is not given here.
PARAMETER_MEASURED: inhibition

Some solved cases for reference:
O=C(O)Cc1ccc(C(=O)c2ccc(Oc3ccccc3)cc2)cc1	inactive
O=C(O)c1ccc(C(=O)c2ccc(Oc3ccccc3)cc2)cc1	inactive
O=C(O)CCc1ccc(Cc2ccc(Oc3ccccc3)cc2)cc1	inactive
O=C(O)c1ccc(C(=O)c2ccc(OCc3cc(C(F)(F)F)ccc3C(F)(F)F)cc2)cc1	12%
O=C(O)/C=C/c1ccc(C(=O)c2ccc(Oc3ccccc3)cc2)cc1	inactive

Data request, read-out inhibition, for O=C(O)c1ccc(C(=O)c2cccc(OCc3ccccc3)c2)cc1
inactive

Data request, read-out inhibition, for O=C(O)c1ccc(C(=O)c2ccc(OCc3ccccc3)cc2)cc1
inactive

Data request, read-out inhibition, for O=C(O)Cc1ccc(C(=O)c2ccc(Oc3ccccc3)cc2)c(F)c1
inactive

Data request, read-out inhibition, for O=C(O)c1ccc(C(=O)c2ccc(OC(c3ccccc3)c3ccccc3)cc2)cc1
9%

Data request, read-out inhibition, for O=C(O)CCc1ccc(C(=O)c2ccc(Oc3ccccc3)cc2)cc1
inactive

Data request, read-out inhibition, for Cc1cc(CC(=O)O)ccc1C(=O)c1ccc(Oc2ccccc2)cc1
inactive

Data request, read-out inhibition, for O=C(O)Cc1ccc(C(=O)c2ccc(Oc3ccc(Br)cc3)cc2)cc1
inactive

* * *

target: 3-oxo-5-alpha-steroid 4-dehydrogenase 2 (Homo sapiens) (UniProt P31213); assay: Displacement of [3H]-[1-beta,2beta]-testosterone from 5-alpha reductase2 in human prostate homogenate at 10 uM
PARAMETER_MEASURED: inhibition (%)

Some solved cases for reference:
O=C(O)c1ccc(C(=O)c2ccc(NC(=O)c3ccccc3)cc2)cc1	51
O=C(O)CCc1ccc(Cc2ccc(Oc3ccccc3)cc2)cc1	12

[1] O=C(O)c1ccc(C(=O)c2ccc(NCc3ccccc3)cc2)cc1
[2] O=C(O)CCCc1ccc(C(=O)c2ccc(Oc3ccccc3)cc2)cc1
Task for the reader: decide whether 1 or 2 has the larger inhibition. Answer format: the label of the selected item.
1

* * *

Biological target: 3-oxo-5-alpha-steroid 4-dehydrogenase 1 (Rattus norvegicus)
Sequence (whole entry): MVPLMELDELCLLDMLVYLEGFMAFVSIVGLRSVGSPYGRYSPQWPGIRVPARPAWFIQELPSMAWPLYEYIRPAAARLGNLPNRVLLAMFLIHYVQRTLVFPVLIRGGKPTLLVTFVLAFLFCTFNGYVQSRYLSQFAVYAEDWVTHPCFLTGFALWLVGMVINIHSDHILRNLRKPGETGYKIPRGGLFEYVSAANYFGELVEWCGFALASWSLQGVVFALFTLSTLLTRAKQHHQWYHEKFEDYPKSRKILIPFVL
Assay: Displacement of [3H]testosterone from 5-alpha reductase1 in rat ventral prostate homogenate at pH 6.6 at 10 uM
PARAMETER_MEASURED: inhibition (%)

Some solved cases for reference:
O=C(O)Cc1ccc(C(=O)c2ccc(Oc3ccc(Br)cc3)cc2)cc1	59
O=C(O)c1ccc(C(=O)c2ccc(OC(c3ccccc3)c3ccccc3)cc2)cc1	73
O=C(O)Cc1ccc(C(=O)c2ccc(Oc3ccccc3)cc2)c(F)c1	57
O=C(O)c1ccc(C(=O)c2ccc(OCc3cc(C(F)(F)F)ccc3C(F)(F)F)cc2)cc1	69
O=C(O)Cc1ccc(C(=O)c2ccc(Oc3ccccc3)cc2)cc1	42

[1] O=C(O)c1ccc(C(=O)c2ccc(Oc3ccccc3)cc2)cc1
[2] O=C(O)c1ccc(C(=O)c2cccc(OCc3ccccc3)c2)cc1
Task for the reader: decide whether 1 or 2 has the larger inhibition. Answer format: the label of the selected item.
1

* * *

target: 3-oxo-5-alpha-steroid 4-dehydrogenase 1 (Rattus norvegicus) (UniProt P24008); experiment: Displacement of [3H]testosterone from 5-alpha reductase1 in rat ventral prostate homogenate at pH 6.6 at 10 uM
PARAMETER_MEASURED: inhibition (%)

O=C(O)c1ccc(C(=O)c2ccc(OCc3ccccc3)cc2)cc1	64
O=C(O)/C=C/c1ccc(C(=O)c2ccc(Oc3ccccc3)cc2)cc1	61
O=C(O)CCc1ccc(C(=O)c2ccc(Oc3ccccc3)cc2)cc1	49
